- system-tested: MMP-13CD (catalytic domain of collagenase-3) (Homo sapiens)
- test-name: Thiopeptolide substrate hydrolysis inhibition assay, MMP-13CD
- Assay type: biochemical
- condition-parameters: Table I; thiopeptolide substrate, HEPES pH 7.0, 22° C.; read-out: MMP-13CD IC50
Measured IC50 by item
// return numeric value only (unit: µM, not printed)

Some solved cases for reference:
INSERT INTO results (molecule, system_tested, observed_measurement) VALUES
  ('Cn1c(=O)n(Cc2cccc(I)c2)c(=O)c2cc(C(=O)OCc3ccccc3)sc21 [Example 109]', 'MMP-13CD (catalytic domain of collagenase-3) (Homo sapiens)', 0.94),
  ('Cn1c(=O)n(Cc2ccccc2)c(=O)c2cc(C(=O)OCc3ccc(Cl)cc3)sc21 [Example 185]', 'MMP-13CD (catalytic domain of collagenase-3) (Homo sapiens)', 0.014),
  ('Cn1c(=O)n(Cc2cccc(Cl)c2)c(=O)c2cc(C(=O)OCc3ccccc3)sc21 [Example 140]', 'MMP-13CD (catalytic domain of collagenase-3) (Homo sapiens)', 0.017),
  ('Cn1c(=O)n(Cc2ccccc2)c(=O)c2cc(C(=O)NCc3ccc(F)c(Cl)c3)sc21 [Example 328]', 'MMP-13CD (catalytic domain of collagenase-3) (Homo sapiens)', 2.7),
  ('COc1ccc(CNC(=O)c2cc3c(=O)n(CCS(=O)(=O)c4ccc(F)cc4)c(=O)n(C)c3s2)cc1 [Example 268]', 'MMP-13CD (catalytic domain of collagenase-3) (Homo sapiens)', 3.6);

Query :: Identify IC50 associated with the molecule Cn1c(=O)n(Cc2ccccc2)c(=O)c2cc(C(=O)NCc3ccc(Cl)cc3)sc21 [Example 357]
Result :: 0.32

Query :: Provide IC50 value for the following molecule: Cn1c(=O)n(Cc2ccccc2)c(=O)c2cc(C(=O)OC3CCOC3)sc21 (stereo not drawn) [Example 191]
Result :: 2.3

Query :: Query IC50 for Cn1c(=O)n(Cc2ccccc2)c(=O)c2cc(C(=O)NCc3ccc(F)c(C(F)(F)F)c3)sc21 [Example 360]
Result :: 0.27

Query :: Identify measured IC50 associated with COc1ccc(CNC(=O)c2cc3c(=O)n(CCS(=O)(=O)c4ccccc4)c(=O)n(C)c3s2)cc1 [Example 227]
Result :: 3.8

Query :: Supply recorded IC50 for Cn1c(=O)n(Cc2ccccc2)c(=O)c2cc(C(=O)OCCCc3ccccn3)sc21 [Example 194] here.
Result :: 88
